Source listed as patent US6020342A.

Target: H^+ /K^+ -ATPase (Sus scrofa, UniProt P19156)
Construct: a microsome fraction prepared from porcine gastric mucosa was used as a standard enzyme
Sequence (P19156 2-1034 limits assumed): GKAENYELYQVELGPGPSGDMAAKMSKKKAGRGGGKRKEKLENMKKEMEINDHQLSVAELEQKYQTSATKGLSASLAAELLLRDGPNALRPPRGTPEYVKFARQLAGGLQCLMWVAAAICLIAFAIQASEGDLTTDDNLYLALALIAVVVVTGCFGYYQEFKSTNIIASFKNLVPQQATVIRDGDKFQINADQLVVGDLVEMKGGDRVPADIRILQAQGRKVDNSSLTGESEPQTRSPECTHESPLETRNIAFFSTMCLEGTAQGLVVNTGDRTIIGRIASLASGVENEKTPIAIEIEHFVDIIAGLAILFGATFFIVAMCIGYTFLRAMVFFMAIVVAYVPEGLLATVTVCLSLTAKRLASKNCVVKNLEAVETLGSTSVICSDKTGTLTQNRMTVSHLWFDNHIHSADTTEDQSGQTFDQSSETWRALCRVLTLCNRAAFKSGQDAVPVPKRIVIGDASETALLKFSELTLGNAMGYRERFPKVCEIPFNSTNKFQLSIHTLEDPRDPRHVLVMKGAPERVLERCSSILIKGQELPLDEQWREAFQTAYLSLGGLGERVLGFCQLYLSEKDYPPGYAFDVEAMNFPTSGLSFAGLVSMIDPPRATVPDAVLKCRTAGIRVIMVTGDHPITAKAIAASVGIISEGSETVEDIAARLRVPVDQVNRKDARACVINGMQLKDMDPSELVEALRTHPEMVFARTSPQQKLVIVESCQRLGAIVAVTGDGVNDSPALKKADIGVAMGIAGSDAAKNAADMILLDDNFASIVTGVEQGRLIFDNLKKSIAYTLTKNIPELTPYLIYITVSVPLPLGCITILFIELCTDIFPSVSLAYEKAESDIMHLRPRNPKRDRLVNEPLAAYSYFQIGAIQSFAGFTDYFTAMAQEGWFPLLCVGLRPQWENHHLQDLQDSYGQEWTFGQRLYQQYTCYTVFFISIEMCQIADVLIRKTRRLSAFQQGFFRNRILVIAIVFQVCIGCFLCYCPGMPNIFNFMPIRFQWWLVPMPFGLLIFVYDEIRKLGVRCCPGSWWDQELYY
Sequence (P18434 whole entry partner): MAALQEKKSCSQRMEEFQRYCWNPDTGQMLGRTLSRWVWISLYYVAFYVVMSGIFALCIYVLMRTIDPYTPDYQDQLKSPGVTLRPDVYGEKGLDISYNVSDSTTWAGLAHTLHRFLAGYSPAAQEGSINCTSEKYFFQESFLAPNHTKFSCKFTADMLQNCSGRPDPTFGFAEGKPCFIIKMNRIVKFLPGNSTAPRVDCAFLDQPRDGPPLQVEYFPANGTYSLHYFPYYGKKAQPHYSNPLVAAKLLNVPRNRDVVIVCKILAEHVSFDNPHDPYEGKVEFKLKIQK
Assay: Inhibitory Action on H^+ /K^+ -ATPase Activity
Details: microsome fraction from porcine gastric mucosa, pH7.4, 37° C., 30 min preincubation, 15 min reaction
Please go through the items and note down their pIC50.
One number for each entry, as −log10 of the molar value.

Worked cases, answers included:
Cc1cc(-c2nc3c4ccsc4ccn3c2N)c(C)o1	5.28
COc1ccc2ccn3c(N)c(-c4sccc4C)nc3c2c1	5.19
CC(=O)N(Cc1ccc(C)cc1)c1c(-c2ccccc2C)nc2c3ccccc3ccn12	5.11
Cc1cc(Cl)ccc1-c1nc2c3ccsc3cc(C)n2c1N	5.33
Cc1ccccc1-c1nc2c3ccccc3ccn2c1NC(C)c1ccccc1 (centres unmarked)	5.36

// each compound listed below needs its pIC50
1. CCNc1c(-c2ccccc2C)nc2c3ccccc3c(OC)cn12
2. Cc1ccccc1-c1nc2c3sccc3ccn2c1N
3. COc1cn2c(N)c(-c3ccccc3C)nc2c2ccccc12
4. Cc1ccc2ccn3c(N)c(-c4ccccc4C)nc3c2c1
5. COc1ccc2ccn3c(N)c(-c4ccccc4C)nc3c2c1

Data returned:
4.64
4.59
4.87
4.70
4.49
